- System: HCT116 p53 -/-
- measurement-notes: MTT cytotoxicity assay
- Assay type: cell-based
- experimental-setup: Homo sapiens, HCT-116, 48 h
experimental-endpoint: pIC50
Answers are plain numbers, as −log10 of the molar value.

// below: answered molecules
smiles-input: COc1ccc(Nc2nc(N)c(C(=O)c3ccccc3)s2)cc1
numeric-result: 6.15
--
smiles-input: O=c1[nH]cc(F)c(=O)[nH]1
numeric-result: 4.71
--
smiles-input: CC(=O)O[C@H]1C(=O)[C@@]2(C)[C@H]([C@H](OC(=O)c3ccccc3)[C@]3(O)C[C@H](OC(=O)[C@H](O)[C@@H](NC(=O)c4ccccc4)c4ccccc4)C(C)=C1C3(C)C)[C@]1(OC(C)=O)CO[C@@H]1C[C@@H]2O
numeric-result: 8.22

Attention now turns to another entry.
## Task # query: pIC50 of entry CC[C@]1(O)C[C@@H]2CN(CCc3c([nH]c4ccccc34)[C@@](C(=O)OC)(c3cc4c(cc3OC)N(C)[C@H]3[C@@](O)(C(=O)OC)[C@H](OC(C)=O)[C@]5(CC)C=CCN6CC[C@]43[C@@H]65)C2)C1
## Result 7.71

* * *

Please respond with reported IC50 for every item in the list.
- Test system: SW 480
- measurement-notes: MTT cytotoxicity assay
- Type: cell-based
- experimental-setup: Homo sapiens, SW480, SW 480, 48 h

Batch request: IC50 per item, same order as input.
1. CC(=O)O[C@H]1C(=O)[C@@]2(C)[C@H]([C@H](OC(=O)c3ccccc3)[C@]3(O)C[C@H](OC(=O)[C@H](O)[C@@H](NC(=O)c4ccccc4)c4ccccc4)C(C)=C1C3(C)C)[C@]1(OC(C)=O)CO[C@@H]1C[C@@H]2O
2. CC[C@]1(O)C[C@@H]2CN(CCc3c([nH]c4ccccc34)[C@@](C(=O)OC)(c3cc4c(cc3OC)N(C)[C@H]3[C@@](O)(C(=O)OC)[C@H](OC(C)=O)[C@]5(CC)C=CCN6CC[C@]43[C@@H]65)C2)C1
3. O=c1[nH]cc(F)c(=O)[nH]1
4. COc1ccc(Nc2nc(N)c(C(=O)c3ccccc3)s2)cc1

## Result
["31.5 nM", "3380 nM", "18600 nM", "795 nM"]
